The values you see were collected from paper PMC8787096.

# procedure summary: in vivo
# assay setup: both, monkey, iv, 0.5 mg/kg
Residues, ends and D or L forms follow the SMILES beside them.
quantity kind: AUC(0-t) (ng·h/mL)
Report the value in ng·h/mL with no unit label.

Given item CC(=O)N[C@H](C(=O)N[C@@H](CO)C(=O)N[C@@H](CCCNC(=N)N)C(=O)N[C@@H](CCCNC(=N)N)C(=O)N[C@@H](CCCNC(=N)N)C(N)=O)C(C)C [CN-105, Ac-VSRRR-NH2] (Ac-VSRRR-NH2) , the value recorded as its AUC(0-t) is 1650

---

# procedure summary: in vivo
# assay setup: both, SD, rat, iv, 0.3 mg/kg
Residues, ends and D or L forms follow the SMILES beside them.
quantity kind: AUC(0-t) (ng·h/mL)
Report the value in ng·h/mL with no unit label.

Given item CC(=O)N[C@H](C(=O)N[C@@H](CO)C(=O)N[C@@H](CCCNC(=N)N)C(=O)N[C@@H](CCCNC(=N)N)C(=O)N[C@@H](CCCNC(=N)N)C(N)=O)C(C)C [CN-105, Ac-VSRRR-NH2] (Ac-VSRRR-NH2) , the value recorded as its AUC(0-t) is 504
